Target: human TLR8 (Homo sapiens, UniProt Q9NR97)
Construct: host or cells: HEK-Blue cells (HEK293-derived reporter line)
Sequence (Q9NR97 27-1041): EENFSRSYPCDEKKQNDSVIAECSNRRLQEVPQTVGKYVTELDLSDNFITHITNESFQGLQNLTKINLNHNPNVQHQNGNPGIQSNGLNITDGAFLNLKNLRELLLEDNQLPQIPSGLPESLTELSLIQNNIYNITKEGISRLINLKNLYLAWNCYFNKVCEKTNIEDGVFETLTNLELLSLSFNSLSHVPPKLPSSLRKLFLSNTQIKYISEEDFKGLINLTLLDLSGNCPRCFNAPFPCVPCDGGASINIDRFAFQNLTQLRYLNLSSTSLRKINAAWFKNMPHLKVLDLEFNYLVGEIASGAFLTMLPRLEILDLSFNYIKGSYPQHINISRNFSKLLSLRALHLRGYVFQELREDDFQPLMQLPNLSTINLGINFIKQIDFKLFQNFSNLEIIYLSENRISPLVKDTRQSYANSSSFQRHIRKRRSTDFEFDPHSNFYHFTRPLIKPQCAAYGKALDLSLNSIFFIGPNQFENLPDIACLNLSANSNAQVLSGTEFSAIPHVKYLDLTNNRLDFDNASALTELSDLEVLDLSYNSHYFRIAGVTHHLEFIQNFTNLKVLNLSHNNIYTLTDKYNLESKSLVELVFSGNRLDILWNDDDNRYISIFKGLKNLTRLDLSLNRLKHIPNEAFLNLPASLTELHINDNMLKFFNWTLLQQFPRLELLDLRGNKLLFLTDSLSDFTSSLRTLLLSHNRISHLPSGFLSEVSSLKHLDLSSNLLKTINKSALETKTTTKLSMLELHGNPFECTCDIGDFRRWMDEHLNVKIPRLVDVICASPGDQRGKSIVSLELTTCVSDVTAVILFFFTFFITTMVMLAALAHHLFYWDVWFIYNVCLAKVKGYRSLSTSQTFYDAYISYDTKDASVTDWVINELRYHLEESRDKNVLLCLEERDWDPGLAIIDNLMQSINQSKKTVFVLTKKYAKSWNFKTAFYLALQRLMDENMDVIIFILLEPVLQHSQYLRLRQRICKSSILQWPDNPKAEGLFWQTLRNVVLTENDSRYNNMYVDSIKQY
Assay: TLR8 inhibition reporter assay (HEK-Blue cells, secreted embryonic alkaline phosphatase reporter)
Format: cell-based
Details: HEK-Blue cells overexpressing human TLR8, stimulated with R848 15.9 μM; read-out: TLR 8 IC50
Catalogue of IC50 readings, one per entry.

# example entries with known answers
>>> df
                                   compound   result
0  Cn1c(-c2ccc(S(C)(=O)=O)cc2)nc2ccc(C3CCN(C4CC5CCC(C4)N5C4COC4)CC3)c(F)c21 (stereo not drawn) [Example 273]  > 50 µM
1  Cn1c(-c2ccc(S(C)(=O)=O)cc2)nc2c(F)cc(C3CCN(C4CC5CCC(C4)N5CC4CC4)CC3)cc21 (single isomer, unassigned) [Example 283]  > 50 µM
2  CS(=O)(=O)c1ccc(-c2nc3c(F)cc(C4CCN(C5CC6CCC(C5)N6CC5CC5)CC4)cc3n2C2CC2)cc1 (single isomer, unassigned) [Example 324]  > 50 µM
3  Cn1c(-c2ccc(S(C)(=O)=O)cc2)nc2cc(C3CCN(C4CC5CCC(C4)N5C4CCOCC4)CC3)cc(F)c21 (stereo not drawn) [Example 212]  > 50 µM
4  COc1ccc(-c2nc3c(C)cc(C4CCN(C5CC6CCC(C5)N6C5COC5)CC4)cc3n2C)cc1OC (single isomer, unassigned) [Example 164]  > 25 µM

API: the following record is the query input.
Answer with the recorded IC50 of CC(C)CN1C2CCC1CC(N1CCC(c3cc4c(cc3F)nc(-c3ccc(S(C)(=O)=O)cc3)n4C)CC1)C2 (single isomer, unassigned) [Example 229] only.
> 50 µM
